Test system: Sprague-Dawley rats
Test: Activity for triggering edema: circulating plasma volume (Evans Blue) in rats
Assay type: in vivo
Conditions: rats, 100 mg/kg oral once daily for 2 weeks; plasma volume on a body weight basis relative to vehicle-dosed group
Description: A test compound was orally dosed once daily at a dose of 100 mg/kg (suspended in 0.5% methyl cellulose) to rats (Sprague-Dawley rats; males of age 3 weeks) continuously for 2 weeks. The plasma volume was assayed, fundamentally according to the method described in J. Appl. Physiol. […] The plasma was diluted with water. […] Further, the ratio (%) of the plasma volume on a body weight basis to that in the control group (vehicle-dosed group) was calculated (Table 1)

[
  {
    "MOLECULE": "CCc1ccc(CCOc2ccc(CC3SC(=O)NC3=O)cc2)nc1 (single isomer, unassigned; (+))",
    "Circulating plasma % of CTRL": "110 % of CTRL"
  },
  {
    "MOLECULE": "Cc1oc(-c2ccccc2)nc1CCOc1ccc(C[C@H](Nc2ccccc2C(=O)c2ccccc2)C(=O)O)cc1",
    "Circulating plasma % of CTRL": "124 % of CTRL"
  },
  {
    "MOLECULE": "Cc1oc(-c2ccccc2)nc1CCOc1ccc(C[C@@H](C(=O)O)n2cccc2)cc1",
    "Circulating plasma % of CTRL": "130 % of CTRL"
  },
  {
    "MOLECULE": "Cc1oc(-c2ccccc2)nc1CCOc1cccc(CSCC(=O)O)c1",
    "Circulating plasma % of CTRL": "133 % of CTRL"
  }
]
